Test system: C33A
Assay: Primary qHTS to identify gynecologic anti-cancer compounds using libraries of approved drugs and bioactive compounds (AID 1345084); also: % is scaled to controls: 0 for no effect and ±100 for the full control effect; nearly all actives have a fitted effect of over 55% in size
Details: Gynecologic cancer cell panel viability, ATPlite luminescence, 48 h; series mostly up to 57.5 µM
Records with an inconclusive call do not appear. Active and inactive are the calls of the source. Calls follow the shape of the dose curve; as a rule, active = well fitted cell-killing curve with a large enough effect; inconclusive = small, poorly fitted or top-dose-only effect, or effect the other way; inactive = flat fitted curve, though single readings scatter. Where a SMILES comes first, the peptide text is derived from it.
property.label: activity change, negative = cytotoxicity

# molecule, target.or.test.system, activity change, negative = cytotoxicity
records = [
    ("CC(=O)N[C@H]1CCN(c2ccc(C3=NOC(CN[S+](=O)([O-])C(C)C)C3)cc2F)C1 (some centres not stated)", "C33A", "inactive"),
    ("C[C@@H]1CC[C@]2(C(=O)O[C@@H]3O[C@H](CO)[C@@H](O)[C@H](O)[C@H]3O)CC[C@]3(C)C(=CCC4[C@@]5(C)C[C@@H](O)[C@H](O)C(C)(C)C5CC[C@]43C)C2[C@]1(C)O (some centres not stated)", "C33A", "inactive"),
    ("C=C1CCC2[C@@](C)(C=O)CCC[C@]2(C)[C@H]1CC/C(C)=C/CO (some centres not stated)", "C33A", "inactive"),
    ("C[C@@H]1C(=O)O[C@H]2CC34[C@H]5C[C@@H](C(C)(C)C)C36[C@@H](OC(=O)[C@@H]6O)O[C@@]4(C(=O)O5)[C@]21O (some centres not stated)", "C33A", "inactive"),
    ("CC1=CC(=O)C[C@H]2[C@@H]1CC[C@@H](C)[C@]21CO[C@H](c2ccoc2)C1=O", "C33A", "inactive"),
]

Entry C[C@@H](O)[C@H](N)C(=O)N1CCC[C@H]1C(=O)N1CCC[C@H]1C(=O)N[C@H](C(N)=O)[C@@H](C)O (H-TPPT-NH2) : reported activity change, negative = cytotoxicity = ?
10.5% [at 11.6 µM] (inactive)

Repeat with "CC(C)(C)NCc1cc(Nc2ccnc3cc(Cl)ccc23)c2c(c1O)CCCC2"
15.8% [at 0.462 µM] (inactive)
